Measured Cmax by item
# Experiment Notes: Pharmacokinetic studies in mice (plasma PK, IV and PO)
# Type: in vivo
# Experimental Conditions: mouse; female C57B16 mice, PO 3.0 mg/kg, plasma
Counter-ions that a name gives are not always drawn.
Measure Name: Cmax

>  <Molecule>
C[C@H](C#N)Nc1cc(-n2ncc3cc(C#N)cnc32)ncc1-n1cc(C2CCC(CCN3CCN(c4ccc(C5CCC(=O)NC5=O)cc4)[C@H](C)C3)CC2)nn1 (stereo partly drawn) [P-155]

>  <Measure Name>
Cmax

>  <Reported Measurement>
3010 nM

$$$$
>  <Molecule>
C[C@H](C#N)Nc1cc(-n2ncc3cc(C#N)cnc32)ncc1-n1cc([C@H]2CC[C@H](CCN3CCN(c4ccc(C5CCC(=O)NC5=O)cc4)CC3)CC2)nn1 (stereo partly drawn) [P-139, formic acid salt]

>  <Measure Name>
Cmax

>  <Reported Measurement>
380 nM

$$$$
>  <Molecule>
C[C@H](C#N)Nc1cc(-n2ncc3cc(C#N)c(N)nc32)ncc1-n1cc([C@H]2CC[C@H](CCN3CCN(c4ccc(C5CCC(=O)NC5=O)cc4)CC3)CC2)nn1 (stereo partly drawn) [P-160, TFA]

>  <Measure Name>
Cmax

>  <Reported Measurement>
245 nM

$$$$

----------
# Tgt: IRAK4 (Homo sapiens, UniProt Q9NWZ3)
# Construct: endogenous in cells; host or cells: THP-1 cells
# Experiment Notes: LVL THP1 HTRF (THP1 Homogeneous Time Resolved Fluorescence)
# Assay type: cell-based
# Experimental Conditions: THP1 cells, 18 h incubation with compound, read-out: LVL THP1 HTRF EC50
The following compounds are listed with their measured DC50 values.

>  <Compound>
C[C@H](C#N)Nc1cc(-n2ncc3cc(C#N)cnc32)ncc1-n1cc([C@H]2CC[C@H](CCN3CCN(c4ccc(N5CCC(=O)NC5=O)nn4)CC3)CC2)nn1

>  <DC50>
143 nM

$$$$
>  <Compound>
C[C@H](C#N)Nc1cc(Nc2ncc(C#N)cc2Cl)ncc1-n1cc([C@H]2CC[C@H](CCN3CCN(c4ccc(N5CCC(=O)NC5=O)cn4)[C@H](C)C3)CC2)nn1

>  <DC50>
7.8 nM

$$$$
>  <Compound>
C[C@H](C#N)Nc1cc(-n2ncc3cc(C#N)c(N)nc32)ncc1-n1cc([C@H]2CC[C@H](CCN3CCN(c4ccc([C@@]5(C)CCC(=O)NC5=O)cn4)[C@H](C)C3)CC2)nn1 (single isomer, unassigned)

>  <DC50>
17.1 nM

$$$$
>  <Compound>
C[C@H](C#N)Nc1cc(-n2ncc3cc(C#N)cnc32)ncc1-n1cc([C@H]2CC[C@H](CCN3CCC(O)(c4ccc(C5CCC(=O)NC5=O)cc4)CC3)CC2)nn1 (some centres unmarked)

>  <DC50>
3.8 nM

$$$$
>  <Compound>
C[C@H](C#N)Nc1cc(-n2ncc3cc(C#N)c(N)nc32)ncc1C(=O)N[C@H]1CC[C@H](CCN2CCN(c3ccc(C4CCC(=O)NC4=O)cc3)[C@@H](C)C2)CC1 (some centres unmarked)

>  <DC50>
1 nM

$$$$

----------
# Tgt: IRAK4 (Homo sapiens, UniProt Q9NWZ3)
# Construct: endogenous in cells; host or cells: THP-1 cells
# Sequence (Q9NWZ3 1-460): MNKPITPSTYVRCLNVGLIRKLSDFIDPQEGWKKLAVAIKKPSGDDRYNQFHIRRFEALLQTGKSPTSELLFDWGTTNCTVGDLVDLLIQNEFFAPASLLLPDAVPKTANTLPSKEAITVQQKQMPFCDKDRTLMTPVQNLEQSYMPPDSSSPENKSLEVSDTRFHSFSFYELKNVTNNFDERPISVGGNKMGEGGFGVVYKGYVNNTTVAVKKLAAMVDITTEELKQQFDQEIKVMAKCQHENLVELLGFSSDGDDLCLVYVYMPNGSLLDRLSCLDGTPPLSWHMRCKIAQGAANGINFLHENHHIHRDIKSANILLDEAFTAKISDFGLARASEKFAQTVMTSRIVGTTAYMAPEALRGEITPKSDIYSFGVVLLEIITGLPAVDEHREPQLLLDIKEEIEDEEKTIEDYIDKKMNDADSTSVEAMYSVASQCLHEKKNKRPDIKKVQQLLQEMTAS
# Experiment Notes: LVL THP1 HTRF (THP1 Homogeneous Time Resolved Fluorescence)
# Assay type: cell-based
# Experimental Conditions: THP1 cells, 18 h incubation with compound
# Protocol: Cell culture media was prepared in a tissue culture hood in a sterile environment by adding 10% FBS and 1% Penicillin Streptomycin to 500 mL no phenol red RPMI 1640 media. The media was filtered through a Nalgene Bottle Top Filter and stored at 4° C. For Homogenous Time Resolved Fluorescence (HTRF) assays, a Cisbio HTRF kit was used, which included: Lysis Buffer #1 4×, Blocking Reagent #3 100×, 20× Antibody 1 (Anti-IRAK4 d2), 20× Antibody 2 (Anti-IRAK4 k), and Detection Buffer. […]
In this section we review reported LVL THP1 HTRF YMIN values for a set of compounds.

>  <Compound>
C[C@H](C#N)Nc1cc(-n2ncc3cc(C#N)cnc32)ncc1-n1cc(C2CCC(CCN3CCN(c4ccc(C5CCC(=O)NC5=O)cc4)[C@H](C)C3)CC2)nn1 (some centres unmarked) [P-155]

>  <LVL THP1 HTRF YMIN>
0.9%

$$$$
>  <Compound>
Cc1cc(N2CCN(CC[C@H]3CC[C@H](c4cn(-c5cnc(-n6ncc7cc(C#N)cnc76)cc5N[C@H](C)C#N)nn4)CC3)CC2)ccc1N1CCC(=O)NC1=O [P-363]

>  <LVL THP1 HTRF YMIN>
5.0%

$$$$
>  <Compound>
C[C@H](C#N)Nc1cc(-n2ncc3cc(C#N)cnc32)ncc1-n1cc([C@H]2CC[C@H](CCN3CCC(n4ccc(C5(F)CCC(=O)NC5=O)cc4=O)CC3)CC2)nn1 (some centres unmarked) [P-349]

>  <LVL THP1 HTRF YMIN>
14.6%

$$$$
>  <Compound>
C[C@H](C#N)Nc1cc(Nc2ncc(C#N)cc2F)ncc1-n1cc([C@H]2CC[C@H](CCN3CCN(c4ccc(C5CCC(=O)NC5=O)cc4)CC3)CC2)nn1 (some centres unmarked) [P-381]

>  <LVL THP1 HTRF YMIN>
2.1%

$$$$
>  <Compound>
C[C@H](C#N)Nc1cc(N2CCc3cc(C#N)cnc32)ncc1-n1cc([C@H]2CC[C@H](CCN3CCN(c4ccc(N5CCC(=O)NC5=O)cc4)CC3)CC2)nn1 [P-486]

>  <LVL THP1 HTRF YMIN>
24.9%

$$$$
>  <Compound>
C[C@H](C#N)Nc1cc(-n2ncc3cc(C#N)cnc32)ncc1-n1cc([C@H]2CC[C@H](CCN3CC[C@H]4[C@@H]3CCN4c3ccc([C@@]4(C)CCC(=O)NC4=O)cn3)CC2)nn1 (single isomer, unassigned) [P-313]

>  <LVL THP1 HTRF YMIN>
44.9%

$$$$
>  <Compound>
N#Cc1cnc2c(cnn2-c2cc(N[C@H]3CCC[C@H]3O)c(-n3cc([C@H]4CC[C@H](CCN5CCN(c6ccc(C7CCC(=O)NC7=O)cc6)CC5)CC4)nn3)cn2)c1 (some centres unmarked) [P-402]

>  <LVL THP1 HTRF YMIN>
1.9%

$$$$
>  <Compound>
C[C@H](C#N)Nc1cc(-n2ncc3cc(C#N)cnc32)ncc1-n1cc(C2CCC(CCN3[C@@H](C)CN(c4ccc([C@@]5(C)CCC(=O)NC5=O)cc4)C[C@@H]3C)CC2)nn1 (some centres unmarked) [P-238]

>  <LVL THP1 HTRF YMIN>
1.1%

$$$$
>  <Compound>
C[C@H](C#N)Nc1cc(-n2ncc3cc(C#N)cnc32)ncc1-n1cc(C2CCC(O)(CCN3CCN(c4ccc(C5CCC(=O)NC5=O)cc4)CC3)CC2)nn1 (some centres unmarked) [P-227]

>  <LVL THP1 HTRF YMIN>
3.0%

$$$$
>  <Compound>
C[C@H](C#N)Nc1cc(-n2ncc3cc(C#N)cnc32)ncc1-n1cc([C@H]2CC[C@H](CCN3CCC(c4ccn(C5CCC(=O)NC5=O)c(=O)c4)CC3)CC2)nn1 (some centres unmarked) [P-413]

>  <LVL THP1 HTRF YMIN>
−1.3%

$$$$
>  <Compound>
C[C@H](C#N)Nc1cc(-n2ncc3cc(C#N)c(N)nc32)ncc1-n1cc(C2CCC(CCN3[C@H](C)CN(c4ccc([C@@]5(C)CCC(=O)NC5=O)cc4)C[C@H]3C)CC2)nn1 (some centres unmarked) [P-242]

>  <LVL THP1 HTRF YMIN>
2.5%

$$$$

----------
# Tgt: IRAK4 (Homo sapiens)
# Construct: endogenous in cells; host or cells: THP-1 cells
# Sequence (Q9NWZ3 1-460): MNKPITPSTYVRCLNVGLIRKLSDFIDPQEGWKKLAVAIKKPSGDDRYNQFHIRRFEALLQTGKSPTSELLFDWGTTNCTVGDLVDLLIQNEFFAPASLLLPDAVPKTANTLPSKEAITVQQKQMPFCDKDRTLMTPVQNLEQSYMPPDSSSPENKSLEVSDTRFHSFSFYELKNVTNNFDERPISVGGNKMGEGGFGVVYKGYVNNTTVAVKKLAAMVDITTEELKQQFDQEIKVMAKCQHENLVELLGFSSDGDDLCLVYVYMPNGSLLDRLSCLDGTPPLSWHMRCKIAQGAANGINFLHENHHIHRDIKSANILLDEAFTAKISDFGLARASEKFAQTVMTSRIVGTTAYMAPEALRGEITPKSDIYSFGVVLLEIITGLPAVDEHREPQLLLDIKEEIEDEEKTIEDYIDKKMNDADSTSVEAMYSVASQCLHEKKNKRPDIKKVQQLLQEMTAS
# Experiment Notes: LVL THP1 HTRF (THP1 Homogeneous Time Resolved Fluorescence)
# Type: cell-based
# Experimental Conditions: THP1 cells, 18 h incubation with compound

>  <Molecule>
COc1cnc(Nc2cc(N[C@H](C)C#N)c(-n3cc([C@H]4CC[C@H](CCN5CCN(c6ccc(C7CCC(=O)NC7=O)cc6)CC5)CC4)nn3)cn2)nc1 (some centres unmarked)

>  <Tgt>
IRAK4 (Homo sapiens)

>  <LVL THP1 HTRF YMIN [%]>
5.8

$$$$
>  <Molecule>
Cc1cc(N2CC[C@H]3[C@@H]2CCN3CC[C@H]2CC[C@H](NC(=O)c3cnc(-n4ncc5cc(C#N)cnc54)cc3N[C@H](C)C#N)CC2)ccc1N1CCC(=O)NC1=O [P-490]

>  <Tgt>
IRAK4 (Homo sapiens)

>  <LVL THP1 HTRF YMIN [%]>
81.6

$$$$
>  <Molecule>
C[C@H](C#N)Nc1cc(-n2ncc3cc(C#N)cnc32)ncc1C(=O)N[C@H]1CC[C@H](CCN2CC[C@H](c3ccc([C@@]4(C)CCC(=O)NC4=O)cc3)C[C@H]2C)CC1

>  <Tgt>
IRAK4 (Homo sapiens)

>  <LVL THP1 HTRF YMIN [%]>
0.2

$$$$
>  <Molecule>
C[C@H](C#N)Nc1cc(-n2ncc3cc(C#N)cnc32)ncc1C(=O)N[C@H]1CC[C@H](CCN2CC3CCC(C2)N3c2ccc(C3CCC(=O)NC3=O)cc2)CC1 (some centres unmarked)

>  <Tgt>
IRAK4 (Homo sapiens)

>  <LVL THP1 HTRF YMIN [%]>
16.8

$$$$
>  <Molecule>
C[C@H](C#N)Nc1cc(-n2ncc3cc(C#N)c(N)nc32)ncc1-n1cc(C2CCC(CCN3C[C@H](C)N(c4ccc(C5CCC(=O)NC5=O)cc4)C[C@H]3C)CC2)nn1 (some centres unmarked)

>  <Tgt>
IRAK4 (Homo sapiens)

>  <LVL THP1 HTRF YMIN [%]>
0.7

$$$$
